# assay.explanation: Ferric reducing antioxidant power (FRAP) assay
# details: Trolox equivalents; acetate buffer pH 3.6, 1 h, 37 °C
endpoint.name: Ferric Reducing Antioxidant Power, TE

Reference set, count: 5
compound	Ferric Reducing Antioxidant Power, TE
[Fe+2].c1cc[cH-]c1.c1ccc(-[c-]2cccc2)nc1 [1a]	2.05 ± 0.02
C=C(C)[c-]1cccc1.[Fe+2].c1ccc(-c2cccc(-[c-]3cccc3)n2)nc1 [5d]	1.47 ± 0.06
C=C(C)[c-]1cccc1.[Fe+2].c1cc[c-](-c2ccnnc2)c1 [5e]	2.65 ± 0.02
C=C[c-]1cccc1.[Fe+2].c1ccc2c(-[c-]3cccc3)c3ccccc3nc2c1 [7c, 1-(Acridin-9-yl)-1′-Vinylferrocene]	1.36 ± 0.01
C=C[c-]1cccc1.[Fe+2].c1ccc(-c2cccc(-[c-]3cccc3)n2)nc1 [7d]	1.93 ± 0.06

So, [Fe+2].c1cc[c-](-c2ccnnc2)c1.c1cc[cH-]c1 [1e, 1-(pyridazin-4-yl)ferrocene] ? Its Ferric Reducing Antioxidant Power, TE was 1.72 ± 0.02
